- Experiment: in vivo
- Design: species or system beagle dogs
- Assay setup: both sexes, beagle, dog, po

{"Line notation": "O=C(O)c1cc(NCCc2ccc(C(F)(F)F)cc2)ccc1O", "NOAEL at 13 weeks, mg/kg/day": 200}

====

- Experiment: Pharmacokinetics after oral administration in mice
- Type: in vivo
- Assay setup: mouse, plasma, 2.5 mg/kg, read-out: AUC (area under the plasma level-time curve)
Measured parameter: AUC (ng·h/mL)

{"Line notation": "O=C(O)c1cc(NCCc2ccc(C(F)(F)F)cc2)ccc1O", "Unit abbrev": "ng·h/mL", "Val": 9610}

====

- Experiment: Pharmacokinetic study in beagle dogs
- Assay type: in vivo
- Assay setup: dog, plasma, oral, 20 mg/kg/day

{"Compound": "O=C(O)c1cc(NCCc2ccc(C(F)(F)F)cc2)ccc1O [Compound 2]", "Unit abbrev": "ng/mL", "Cmax": 10600}
